System: MDA-MB-231
Test: NCI tumour cell line growth inhibition, 48 h
Activity calls are given as the source filed them. No stated cut-off is given here; in the data, active = GI50 up to about 1.1 µM and inactive = higher.
readout_name: GI50

Below are worked cases with known answers.
Q: // query GI50 value for entry "C=CCN(c1cc(O)c2c(c(C)cn2S(=O)(=O)c2ccccc2)c1[N+](=O)[O-])S(C)(=O)=O"
A: > 100 µM (inactive)

Q: // query GI50 value for entry "Cc1cc(-c2ccc(C(=O)C(Cl)(Cl)Cl)[nH]2)on1"
A: 18 µM (inactive)

Q: // query GI50 value for entry "COc1cc2c(cc1OCCCN1CCOCC1)N=C[C@@H]1CCCN1C2=O"
A: 11 µM (inactive)

Q: // query GI50 value for entry "C[C@@H]1Nc2cc(NC(=O)OCCF)nc(N)c2N=C1c1ccccc1"
A: < 0.0001 µM (active)

Q: // query GI50 value for entry CN1C(=O)C2CCCC(=O)N2c2cccnc21 (stereo unspecified)
A: > 100 µM (inactive)

Q: // query GI50 value for entry "N[C@H](Cc1ccc2oc3cc(=O)c4ccccc4c-3nc2c1)C(=O)O"
A: 62.7 µM (inactive)

Q: // query GI50 value for entry "C/C(CC(O)(C(F)(F)F)C(F)(F)F)=N\O"
A: > 10 µM (inactive)

Q: // query GI50 value for entry "CNC(=O)CCNC(=O)CCC(=O)N(C)C"
A: > 100 µM (inactive)

Next:
Q: // query GI50 value for entry CC[C@@]1(O)C(=O)OCc2c1cc1n(c2=O)Cc2c-1nc1ccccc1c2/C=N\NC(=O)C(N)Cc1c[nH]c2ccccc12 (stereo partly specified)
A: 33 µM (inactive)

Q: // query GI50 value for entry "CNc1cc(Cl)ccc1C(=O)N1CCC[C@H]1CO"
A: > 100 µM (inactive)

Q: // query GI50 value for entry "COc1ccc(NCc2cnc3nc(N)nc(N)c3c2C)cc1"
A: 0.121 µM (active)

###

The following compounds are listed with their measured GI50 values.
System: A498
Test: NCI tumour cell line growth inhibition, 48 h
Active and inactive are the calls of the source. Cut-off read from the data, not from the text of the source: active = GI50 up to about 1.1 µM and inactive = higher.

Below are worked cases with known answers.
Q: // query GI50 value for entry "CN(C)NC(=O)NC12CC3CC(CC(C3)C1)C2"
A: > 100 µM (inactive)

Q: // query GI50 value for entry CC1(C)OC2OC(COC(=O)C=[N+]=[N-])C3OC(C)(C)OC3C2O1 (centres undefined)
A: > 100 µM (inactive)

Q: // query GI50 value for entry "COc1cc2c(cc1OC)-c1[nH]c3ccc(C#N)cc3c1CC(=O)N2"
A: 7.74 µM (inactive)

Q: // query GI50 value for entry "c1cc(-c2ccc(-c3ccc(C4=NCCCN4)cc3)o2)ccc1C1=NCCCN1"
A: 2.24 µM (inactive)

Q: // query GI50 value for entry "COc1ccc(/C=C/c2cc(OC)c(OCc3ccccc3)c(OC)c2)cc1"
A: > 100 µM (inactive)

Next:
Q: // query GI50 value for entry "COc1nc2ncc([C@@H](OC(C)=O)[C@@H](COC(C)=O)OC(C)=O)nc2c(=O)n1C"
A: > 100 µM (inactive)

Q: // query GI50 value for entry "CCOC(=O)c1c(N2CCCC2)ncn(Cc2ccccc2)c1=S"
A: 49.4 µM (inactive)

Q: // query GI50 value for entry "COc1cc(-c2oc3c(OC)c(O)c(OC)c(O)c3c(=O)c2OC)cc(O)c1OC"
A: 22.5 µM (inactive)

Q: // query GI50 value for entry COC(=O)C(/C(=N/N)C(=O)Nc1cccc(O)c1)c1nc2ccccc2nc1O (centres undefined)
A: > 100 µM (inactive)
